# TESTED SYSTEM: glycogen synthase kinase 3 β (PfGSK3β, PF3D7_0312400) (Plasmodium falciparum, UniProt O77344)
# Sequence (O77344 1-440): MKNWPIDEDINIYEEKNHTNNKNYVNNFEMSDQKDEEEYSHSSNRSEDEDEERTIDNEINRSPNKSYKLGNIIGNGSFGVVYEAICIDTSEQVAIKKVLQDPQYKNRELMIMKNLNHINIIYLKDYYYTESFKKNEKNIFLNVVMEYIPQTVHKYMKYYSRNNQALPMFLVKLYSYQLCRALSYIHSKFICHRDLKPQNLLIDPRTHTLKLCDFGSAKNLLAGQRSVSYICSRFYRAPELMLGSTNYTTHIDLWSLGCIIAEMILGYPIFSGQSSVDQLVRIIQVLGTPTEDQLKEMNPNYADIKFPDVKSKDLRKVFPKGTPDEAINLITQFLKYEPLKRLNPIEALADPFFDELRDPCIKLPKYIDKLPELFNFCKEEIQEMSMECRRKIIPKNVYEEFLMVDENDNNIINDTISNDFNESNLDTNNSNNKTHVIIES
# ASSAY NOTES: KinaseSeeker competition binding assay with recombinant kinase; also Kinobead competition (IC50 […])
# CONDITION DESCRIPTION: read-out: IC50 value ± SEM or SD ^c

CHEMICAL STRUCTURE	UNITS OF MEASURE	IC50
O=c1[nH]c2ccc(Cl)cc2c(N[C@@H]2CN3CCC2CC3)c1-c1nc2ccccc2[nH]1	µM	0.2

###

# TESTED SYSTEM: Aurora-related kinase 1 (PfArk1, PF3D7_0605300) (Plasmodium falciparum, UniProt C6KSQ1)
# Sequence (C6KSQ1 entry or part of it): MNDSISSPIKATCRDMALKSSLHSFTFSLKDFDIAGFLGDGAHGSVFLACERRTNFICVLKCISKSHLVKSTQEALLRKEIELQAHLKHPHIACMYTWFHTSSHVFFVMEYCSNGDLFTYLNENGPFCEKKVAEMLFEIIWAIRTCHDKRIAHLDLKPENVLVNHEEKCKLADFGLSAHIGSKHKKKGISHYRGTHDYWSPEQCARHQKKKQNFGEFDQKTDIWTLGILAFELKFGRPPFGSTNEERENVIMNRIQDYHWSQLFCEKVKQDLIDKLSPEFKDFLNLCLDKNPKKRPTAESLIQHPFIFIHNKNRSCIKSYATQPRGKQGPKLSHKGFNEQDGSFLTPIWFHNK
# ASSAY NOTES: KinaseSeeker competition binding assay with recombinant kinase; also Kinobead competition (Kd app […]) and conditional knockdown sensitization ([…])
pIC50: −log10 of the molar value.
MEASURED METRIC: pIC50

CHEMICAL STRUCTURE	MEASURED METRIC	VAL
O=c1[nH]c2ccc(Cl)cc2c(N[C@@H]2CN3CCC2CC3)c1-c1nc2ccccc2[nH]1	pIC50	6.42

###

# TESTED SYSTEM: 3-phosphoinositide-dependent protein kinase 1 (PfPDK1, PF3D7_1121900) (Plasmodium falciparum)
# Sequence (Q8IIE7 1-525): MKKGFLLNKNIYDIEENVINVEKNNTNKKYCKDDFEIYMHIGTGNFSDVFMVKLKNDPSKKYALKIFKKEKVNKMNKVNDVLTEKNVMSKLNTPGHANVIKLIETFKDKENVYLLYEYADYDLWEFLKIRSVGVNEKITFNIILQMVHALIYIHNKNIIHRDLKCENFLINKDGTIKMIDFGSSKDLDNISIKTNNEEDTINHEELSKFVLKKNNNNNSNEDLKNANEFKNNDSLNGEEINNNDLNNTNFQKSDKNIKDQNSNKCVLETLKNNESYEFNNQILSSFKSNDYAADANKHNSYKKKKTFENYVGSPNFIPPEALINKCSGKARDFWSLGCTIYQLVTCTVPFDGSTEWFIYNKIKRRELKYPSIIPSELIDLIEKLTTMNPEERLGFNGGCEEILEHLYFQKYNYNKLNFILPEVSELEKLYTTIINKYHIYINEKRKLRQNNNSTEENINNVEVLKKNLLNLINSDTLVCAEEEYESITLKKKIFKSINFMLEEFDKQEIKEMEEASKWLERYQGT
# ASSAY NOTES: Kinobead competitive pulldown from asexual blood stage parasite lysate, mass spectrometry
# Type: biochemical

CHEMICAL STRUCTURE	Kd, nM
O=c1[nH]c2ccc(Cl)cc2c(N[C@@H]2CN3CCC2CC3)c1-c1nc2ccccc2[nH]1	100

###

# ASSAY NOTES: in vitro
# Parameters: HepG2 liver cell cytotoxicity
# CONDITION DESCRIPTION: human, hepg2 cells; read-out: Liver cytotoxicity HepG2 IC50
# From the text: Moderate activity was also observed against immature and late-stage gametocytes, in the low micromolar range, as well as against liver stages, in the submicromolar range (Table and Supplementary Table S3).
MEASURED METRIC: CC50 (µM)

CHEMICAL STRUCTURE	VAL
O=c1[nH]c2ccc(Cl)cc2c(N[C@@H]2CN3CCC2CC3)c1-c1nc2ccccc2[nH]1	4.3

###

# System: Plasmodium falciparum PfNF54 (WT)
# Construct: NF54
# ASSAY NOTES: microbe, parasite or virus in culture
# Set-up: species or system P. falciparum asexual blood stages; asexual blood stage growth inhibition, SYBR Green I read-out
# CONDITION DESCRIPTION: read-out: Mean IC50 ± SEM (µM), SYBR Green I
MEASURED METRIC: IC50

CHEMICAL STRUCTURE	VAL
O=c1[nH]c2ccc(Cl)cc2c(N[C@@H]2CN3CCC2CC3)c1-c1nc2ccccc2[nH]1	0.033 µM

###

# TESTED SYSTEM: Serine/threonine protein kinase ; PF3D7_0605300 ; C6KSQ1 (Plasmodium falciparum)
# ASSAY NOTES: biochemical
# Parameters: species or system Plasmodium falciparum asexual blood stage lysate; Kinobeads competitive pulldown from asexual blood stage P. falciparum extract, TMT quantitative mass spectrometry, apparent Kd
# CONDITION DESCRIPTION: Kdapp, Experiment ID=X048538; apparent Kd, Kinobeads competition
# Description: Eluted kinases are quantified in a dose-dependent manner via mass spectrometry. […] Data and error bars represent the mean and SD from two independent experiments. […] Data are plotted as the mean with error bars representing the SEM where N,n = 3,2.
pKd: −log10 of the molar value.
MEASURED METRIC: pKd

COMPOUND	MEASURED METRIC	VAL
O=c1[nH]c2ccc(Cl)cc2c(N[C@@H]2CN3CCC2CC3)c1-c1nc2ccccc2[nH]1 [CHIR-124]	pKd	6.81

Data origin, for the record: paper PMC13386468
